assay: PK studies in mice; conditions: female, CD-1, mouse, plasma, ip, 30 mg/kg, blood plasma level of AS-99, i.p., time 2 h
measured parameter: concentration at 2 h (nM)

smiles text	measured parameter	assay value
CN1CC(C(=O)NCc2ccc3c(-c4cccc(C(N)=S)c4)cn(C4CCN(S(=O)(=O)C(F)(F)F)CC4)c3c2)C1	concentration at 2 h	2760

---

assay: PK studies in mice; conditions: female, CD-1, mouse, plasma, iv, 15 mg/kg, blood plasma level of AS-99, i.v., time 0.167 h

compound	unit label	concentration at 0.167 h
CN1CC(C(=O)NCc2ccc3c(-c4cccc(C(N)=S)c4)cn(C4CCN(S(=O)(=O)C(F)(F)F)CC4)c3c2)C1 [AS-99]	µM	10.2
